Could you please report measured protein stability index for the items listed next?
Assay: protein stability index of a GFP-peptide fusion (yeast GPS) (PSI 1-4); higher = more stable; sorted into four equal gates, so the index is relative within each strain
Conditions: pdr5∆
Reply with just the number.

query: # protein stability index lookup, item RDKKEKKQAQKQTKLRK [SMB1]
result: 3.53

query: What measured protein stability index goes with VELLDSNDRVNPLIELT [ITC1] ?
result: 2.5

query: Could you tell me which protein stability index is on file for NKLMEKDFQVNKEIKPY [SIR4] ?
result: 3.38

query: Which protein stability index is reported for this sequence? EVFEFKTFNKIQSQVFE [BRR2]
result: 3.29

query: I would be grateful if you could share the reported protein stability index for MEDPPSTVSGELNDNPA [YMR153W/NUP53] .
result: 2.81

query: Endpoint output: protein stability index of QQQQQNQQQQNQQPQQQ [SWI1] . Value?
result: 3.06

query: Recorded protein stability index for ITYALSGYVRSRGESDD [RPS21B] , please?
result: 2.81

query: // returns reported protein stability index for input RIVNHKTKLWGFKWLNK [LIN1]
result: 3.1

query: Record request: protein stability index value, item LSCEKITHYAVRGGNIE [RRI1]
result: 2.3

query: May I ask what protein stability index has been recorded for LFKRDCNQMENLLESIT [YCS4] ?
result: 2.17

query: Recorded protein stability index of VTAEDFKQAKERVMKNK [RPT2] , please.
result: 3.52

query: Consider the sequence shown here: TGAYIANRVTDKLTRVH [PRE3] What is its recorded protein stability index?
result: 1.76

query: Suppose we examine the sequence VRIDKALELDDTVVSRV [ECM29] ; what protein stability index value has been reported?
result: 2.91

query: Need protein stability index, item GLRNQNMVRNNNNNTID [GRR1]
result: 2.86

query: Any idea what its protein stability index is? The sequence is YSKAKYPDLQPFVLAEN [CDC53]
result: 2.72
